For each entry below, report its Emax value.
Measured on: UniProt:P35372
Sequence (P35372 whole entry, species assumed): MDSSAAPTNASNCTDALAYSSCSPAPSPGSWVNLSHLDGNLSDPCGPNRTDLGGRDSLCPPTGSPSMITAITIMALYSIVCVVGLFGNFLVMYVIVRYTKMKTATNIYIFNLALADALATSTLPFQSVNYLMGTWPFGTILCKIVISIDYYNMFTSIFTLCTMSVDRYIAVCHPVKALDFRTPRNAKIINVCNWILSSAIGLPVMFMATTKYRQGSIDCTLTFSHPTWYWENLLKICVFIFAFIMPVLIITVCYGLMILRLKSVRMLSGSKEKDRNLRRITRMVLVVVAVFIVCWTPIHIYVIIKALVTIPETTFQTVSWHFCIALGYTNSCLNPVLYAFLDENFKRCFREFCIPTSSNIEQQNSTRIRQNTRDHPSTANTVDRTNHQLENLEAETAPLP
Method notes: biochemical
Design: purchased Perkin Elmer, Shelton, Conn; host or cells: HEK-293 or CHO
Experimental parameters: HEK-293 or CHO cells; relative to DAMGO; read-out: GTPγS μ Emax
Give the figure together with its unit, number first.

Some solved cases for reference:
Smiles structure: COc1ccc2c(c1)[C@]1(CCNC(=O)[C@H](C)NC(C)=O)CCN(CC3CC3)[C@H](C2)[C@@H]1C
Emax: 0%
--
Smiles structure: C[C@H]1[C@H]2Cc3ccc(O)cc3[C@]1(CCNS(=O)(=O)C1CC1)CCN2CC1CC1
Emax: -0.33%

Hi there! I need Emax for each item below, if you can.
1. C[C@H]1[C@H]2Cc3ccc(O)cc3[C@]1(CCNC(=O)c1ccc(C(=O)O)cc1)CCN2CC1CC1
2. C[C@H]1[C@H]2Cc3ccc(O)cc3[C@]1(CCCCN[C@@H](Cc1ccccc1)C(N)=O)CCN2CC1CC1

A:
1: -1%; 2: 1%
